System: Proteus vulgaris 100
Experiment: In vitro MIC, Agar Well Diffusion Method
Format: cell-based
Settings: Culture Proteus vulgaris 100
Counter-ions that a name gives are not always drawn.
For each record, write down the corresponding MIC.

Please fill in: MIC reported for CC(=O)Oc1ccc(C(=O)OCC2(C)SC3C(NC(=O)Cc4ccccc4)C(=O)N3C2C(=O)O)cc1OC(C)=O (stereo not shown) [Compound H, monosodium salt] = > 500 µg/mL

Please fill in: MIC reported for CC1(C[n+]2ccccc2)SC2C(NC(=O)Cc3ccccc3)C(=O)N2C1C(=O)[O-] (stereo not shown) [Compound E] = > 500 µg/mL

Please fill in: MIC reported for CC(=O)SCC1(C)SC2C(NC(=O)Cc3ccccc3)C(=O)N2C1C(=O)O (stereo not shown) [Compound G, monosodium salt] = > 500 µg/mL

Please fill in: MIC reported for CCN1CCN(C(=O)NC(C(=O)NC2C(=O)N3C2SC(C)(CSc2nnnn2C)C3C(=O)O)c2ccccc2)C(=O)C1=O (stereo not shown) [Compound A, monosodium salt sesquihydrate] = 7.8 µg/mL

Please fill in: MIC reported for CON=C(C(=O)NC1C(=O)N2C1SC(C)(CSc1nnnn1C)C2C(=O)O)c1csc(N)n1 (stereo not shown) [Compound C, monosodium salt] = 250 µg/mL

Please fill in: MIC reported for CC1(CN=[N+]=[N-])SC2C(NC(=O)Cc3ccccc3)C(=O)N2C1C(=O)O (stereo not shown) [Compound D, monosodium salt] = > 125 µg/mL

Please fill in: MIC reported for Cn1nnnc1SCC1(C)SC2C(NC(=O)Cc3ccccc3)C(=O)N2C1C(=O)O (stereo not shown) [Compound B, monosodium salt] = > 125 µg/mL
